Measured A405, TF/FVIIa/FX complex assay, Ab 6.25 nM by item
biological target: recombinant human TFPI (tissue factor pathway inhibitor) (human, UniProt P10646 29-304); test: cell-based or functional assay
Please reply with the number alone, leaving off any unit.

Consider the following illustrative entries.
{"BINDER": "clone 1023 (antibody, V domains shown, scFv on yeast at selection; human IgG4/kappa IgG as purified) VH: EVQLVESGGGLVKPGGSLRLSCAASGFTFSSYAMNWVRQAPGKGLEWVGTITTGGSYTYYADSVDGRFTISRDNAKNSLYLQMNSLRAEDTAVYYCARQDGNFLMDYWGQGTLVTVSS VL: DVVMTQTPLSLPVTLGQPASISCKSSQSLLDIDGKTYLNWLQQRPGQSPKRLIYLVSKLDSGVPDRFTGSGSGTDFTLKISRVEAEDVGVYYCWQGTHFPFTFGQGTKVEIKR", "NUMERIC READOUT": 0.071}
{"BINDER": "clone 12 (antibody, V domains shown, human IgG4/kappa IgG as purified; also called No. 12 antibody) VH: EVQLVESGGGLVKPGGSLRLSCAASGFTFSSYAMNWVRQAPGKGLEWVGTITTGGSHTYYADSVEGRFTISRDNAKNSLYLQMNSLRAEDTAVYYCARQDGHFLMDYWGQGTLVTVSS VL: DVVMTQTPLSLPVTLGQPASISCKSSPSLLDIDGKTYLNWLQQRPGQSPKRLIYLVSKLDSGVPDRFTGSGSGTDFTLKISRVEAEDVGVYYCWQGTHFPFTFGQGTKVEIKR", "NUMERIC READOUT": 0.067}
{"BINDER": "clone 13 (antibody, V domains shown) VH: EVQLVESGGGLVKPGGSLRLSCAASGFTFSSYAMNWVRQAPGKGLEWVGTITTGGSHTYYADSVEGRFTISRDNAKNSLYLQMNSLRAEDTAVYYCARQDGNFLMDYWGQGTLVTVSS VL: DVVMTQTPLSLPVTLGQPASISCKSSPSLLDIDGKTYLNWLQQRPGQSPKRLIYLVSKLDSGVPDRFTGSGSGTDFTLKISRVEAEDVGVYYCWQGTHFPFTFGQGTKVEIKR", "NUMERIC READOUT": 0.075}

Now, please, on to the next binder.
Using the record for clone 1202 (antibody, V domains shown, scFv on yeast at selection; human IgG4/kappa IgG as purified; also called No. 1202 antibody) VH: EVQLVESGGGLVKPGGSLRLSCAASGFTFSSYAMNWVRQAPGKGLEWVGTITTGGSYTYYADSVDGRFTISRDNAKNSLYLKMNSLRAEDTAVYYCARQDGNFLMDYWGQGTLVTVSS VL: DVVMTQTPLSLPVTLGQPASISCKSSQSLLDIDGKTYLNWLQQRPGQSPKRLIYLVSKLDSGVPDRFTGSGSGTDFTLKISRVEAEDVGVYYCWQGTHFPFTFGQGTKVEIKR , state its measured A405, TF/FVIIa/FX complex assay, Ab 6.25 nM.
0.059
